These measurements were taken from patent US20240368120A1.

Tgt: human GLP-1R receptor (Homo sapiens)
Construct: expressed in transfected cells
Sequence (P43220 24-463): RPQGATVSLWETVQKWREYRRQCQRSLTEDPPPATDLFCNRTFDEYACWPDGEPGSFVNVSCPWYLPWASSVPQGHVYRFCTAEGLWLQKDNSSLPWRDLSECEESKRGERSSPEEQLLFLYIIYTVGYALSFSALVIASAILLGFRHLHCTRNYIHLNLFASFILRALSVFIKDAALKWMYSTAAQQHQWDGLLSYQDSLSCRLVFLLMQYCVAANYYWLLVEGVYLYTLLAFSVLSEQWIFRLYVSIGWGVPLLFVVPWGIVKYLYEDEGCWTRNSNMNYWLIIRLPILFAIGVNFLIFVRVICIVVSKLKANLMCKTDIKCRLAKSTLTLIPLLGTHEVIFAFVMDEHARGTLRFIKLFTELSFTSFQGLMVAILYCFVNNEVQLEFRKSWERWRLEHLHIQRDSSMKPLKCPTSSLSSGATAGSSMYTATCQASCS
Experimental details: GLP-1R low expression cell assay (cAMP TR-FRET, CHO-K1_hGLP-1Rlow_clone10 cells)
Assay type: cell-based
Test conditions: cAMP TR-FRET, 30 min at 25° C.
Metric name: EC50

[[record]]
smiles_structure = "COc1cc(C(=O)O)cc2c1nc([C@H](C)N1CCC(c3cccc(OCc4ccc(C#N)cc4F)n3)CC1)n2C[C@@H]1CCO1"
reported_measurement = "< 10 nM"


Query :: Item under review: Cn1c(CN2CCN(c3cccc(OCc4ccc(Cl)cc4F)n3)CC2)nc2c(OC(F)F)cc(C(=O)O)cc21 . Reported EC50?
Result :: 10 to 100 nM

Query :: Fill in: EC50 of Cn1c(CN2CCC(c3cccc(OCc4ccc(Cl)cc4)n3)CC2)nc2c(OC(F)F)cc(C(=O)O)cc21 is ___
Result :: 10 to 100 nM

----------
Experimental details: Rat pharmacokinetics, oral dosing
Format: in vivo, Sprague-Dawley rats
Test conditions: male, Sprague-Dawley, oral dosing at 3 mg/kg, plasma
Metric name: Cmax

[[record]]
molecule = "COc1cc(C(=O)O)cc2c1nc(CN1CCC(c3cccc(OCc4ccc(C#N)cc4F)n3)CC1)n2C [Compound 308]"
reported_measurement = "1000 to 2000 ng/mL"

[[record]]
molecule = "CCOc1cc(C(=O)O)cc2c1nc(CN1CCC(c3cccc(OCc4ccc(C#N)cc4F)n3)CC1)n2C [Compound 298]"
reported_measurement = "1000 to 2000 ng/mL"

[[record]]
molecule = "COc1cc(C(=O)O)cc2c1nc(CN1CCC(c3cccc(OCc4ccc(C(F)F)cc4F)n3)CC1)n2C [Compound 305]"
reported_measurement = "2000 to 5000 ng/mL"

[[record]]
molecule = "Cn1c(CN2CCC(c3cccc(OCc4ccc(C#N)cc4F)n3)CC2)nc2c(OCF)cc(C(=O)O)cc21 [Compound 113]"
reported_measurement = "1000 to 2000 ng/mL"

[[record]]
molecule = "C[C@]1(c2ccc(Cl)cn2)Oc2cccc(C3CCN(Cc4nc5c(OCC6COC6)cc(C(=O)O)cc5n4C[C@@H]4CCO4)CC3)c2O1 [Compound 77]"
reported_measurement = "< 500 ng/mL"


Query :: Using the record for Cn1c(CN2CCC(c3cccc(OCc4ccc(C#N)cc4F)n3)CC2)nc2c(OC(F)F)cc(C(=O)O)cc21 [Compound 127] , report its Cmax.
Result :: 2000 to 5000 ng/mL

Query :: Query: Cmax; subject: C[C@]1(c2ccc(Cl)cn2)Oc2cccc(C3CCN(Cc4nc5c(OC(F)F)cc(C(=O)O)cc5n4C[C@@H]4CCO4)CC3)c2O1 [Compound 78]
Result :: < 500 ng/mL

Query :: Which Cmax reading was recorded for the molecule [2H]C([2H])(C)Oc1cc(C(=O)O)cc2c1nc(CN1CCC(c3cccc(OCc4ccc(Cl)cc4F)n3)CC1)n2C [Compound 296] ?
Result :: 2000 to 5000 ng/mL

----------
Listed here are compounds together with their documented Emax.
Tgt: human GLP-1R receptor (Homo sapiens)
Construct: expressed in transfected cells
Experimental details: GLP-1R low expression cell assay (cAMP TR-FRET, CHO-K1_hGLP-1Rlow_clone10 cells)
Format: cell-based
Test conditions: maximum activation relative to control GLP-1 peptide agonist

[[record]]
smiles_structure = "CC(C)(C)Oc1cc(C(=O)O)cc2c1nc(CN1CCC(c3cccc(OCc4ccc(C#N)cc4F)n3)CC1)n2C[C@@H]1CCO1"
metric_name = "Emax"
reported_measurement = "> 85%"

[[record]]
smiles_structure = "Cn1c(CN2CCC(c3c(F)cccc3OCc3ccc(C#N)cc3F)CC2)nc2c(OC(F)F)cc(C(=O)O)cc21"
metric_name = "Emax"
reported_measurement = "50 to 85%"

[[record]]
smiles_structure = "Cn1c(Cc2ccc(Oc3cccc(COc4ccc(Cl)cc4F)n3)cc2F)nc2c(OC(F)F)cc(C(=O)O)cc21"
metric_name = "Emax"
reported_measurement = "> 85%"

[[record]]
smiles_structure = "Cn1c(CN2CCC(c3cccc(OCc4ccc(Cl)cc4F)n3)CC2)nc2c(OC(F)F)cc(-c3noc(=O)[nH]3)cc21"
metric_name = "Emax"
reported_measurement = "50 to 85%"

[[record]]
smiles_structure = "N#Cc1ccc(COc2cccc(C3CCN(Cc4nc5c(O)nc(C(=O)O)cc5n4C[C@@H]4CCO4)CC3)n2)c(F)c1"
metric_name = "Emax"
reported_measurement = "> 85%"

[[record]]
smiles_structure = "Cn1c(CN2CCC(c3cccc4c3O[C@@H](c3ccc(C#N)cc3F)CO4)CC2)nc2c(OCCF)cc(C(=O)O)cc21"
metric_name = "Emax"
reported_measurement = "50 to 85%"


// switching to the query compound
Query :: Given the entry Cn1c(CN2CCC(c3cccc4c3O[C@@H](c3ccc(C#N)cc3F)CO4)CC2)nc2c(OC(F)F)cc(C(=O)O)cc21 , what Emax was observed with human GLP-1R receptor (Homo sapiens)?
Result :: > 85%
